src = ChEMBL document CHEMBL4513216

experiment: Toxicity liver stage against HepG2, at 10uM; format: cell-based; set-up: test concentration 10 uM, cell line HepG2-A16-CD81EGFP; details: human, HepG2-A16-CD81EGFP cells; read-out: INHIBITION
// cytotoxicity at 10 µM lookup, one value per entry
measurement-label: cytotoxicity at 10 µM (%)

> print(dat)
                                    molecule  value.reported
 1  CN(C(=O)C1CCC1)C1CCN(c2ccccc2Cl)C1=O (stereo not drawn)          -0.949
 2  Cc1noc2ncc(C(=O)N(CC3CCOC3)C3CC3)cc12 (stereo not drawn)           -6.64
 3     CCCc1c(C(=O)N2CCN(Cc3ccccn3)CC2)cnn1C           -1.96
 4     O=c1[nH]nc(CCCN2CCOCC2)n1Cc1cccc(F)c1            7.04
 5  Cc1cnc2n(c1=O)C(CC(=O)NCc1cc(-c3cccs3)on1)CS2 (stereo not drawn)           -1.51
 6  CNS(=O)(=O)CC1CCCN1C(=O)c1ccc2cc[nH]c2c1 (stereo not drawn)          -0.651
 7     CC(C)NC(=O)N(Cc1cc(O)nc2ccccc12)C(C)C           0.266
 8  O=C(NCC1CCCO1)c1nc2c(s1)CCCN2c1ncccn1 (stereo not drawn)           -5.17
 9  COCCO[C@H]1CCN(c2cc(OC)ncn2)[C@H]1Cc1cccnc1            -140
10           O=C(Nc1nncs1)N1CCCN(C2CCCC2)CC1           -4.31
11  COc1ncccc1CN1C[C@@H]2COC[C@]2(CNC(=O)c2ccno2)C1            8.07
12          Cc1nc(CNC(=O)N(C)Cc2cnn(C)c2)cs1           -14.3
13  CCN(CC)C(=O)CN1CCC2(C=Cc3cc(Cl)c(C)cc3O2)CC1           -3.02

---

test: Toxicity liver stage against HepG2, at 10uM; assay type: cell-based; design: test concentration 10 uM, cell line HepG2-A16-CD81EGFP; conditions: human, HepG2-A16-CD81EGFP cells; read-out: INHIBITION
measurement-label: cytotoxicity at 10 µM (%)

> print(dat)
                                    compound      measurement.label  value.reported
 1              CCOc1ncnc2c1CCN(Cc1cccs1)CC2  cytotoxicity at 10 µM            10.2
 2  Cn1ccnc1CN1CCN(CC2CC2)[C@@H]2CS(=O)(=O)C[C@@H]21  cytotoxicity at 10 µM            1.02
 3   COC(=O)c1ncccc1N1CCN(C(=O)CN2CCOCC2)CC1  cytotoxicity at 10 µM            16.7
 4  COCC(=O)N1CCCC1c1cccc(C)c1C (stereo not drawn)  cytotoxicity at 10 µM           -1.32
 5          COC(=O)CNC(=O)Cn1ccc2cccc(OC)c21  cytotoxicity at 10 µM           -34.9
 6       COc1cccc(CCNC(=O)c2ccc(=O)n(C)c2)c1  cytotoxicity at 10 µM           -9.08
 7  Cc1nc(C)c(C(C)NC(=O)NCCNc2cccc(F)c2C#N)s1 (stereo not drawn)  cytotoxicity at 10 µM           -1.37
 8              O=C(Cc1cnc(-n2cccc2)s1)NCCCO  cytotoxicity at 10 µM           -3.14
 9     Cn1ccnc1COc1ccc(CN2CCC(C(N)=O)CC2)cc1  cytotoxicity at 10 µM           -4.47
10  CCn1cc(CN2CCCn3nc(CNS(C)(=O)=O)cc3C2)c(C)n1  cytotoxicity at 10 µM            4.06
11             CC(C)Oc1ncccc1CNC(=O)N1CCSCC1  cytotoxicity at 10 µM           -11.8
12    CCCn1cc(C(=O)NCCc2ccc3c(c2)OCO3)c(C)n1  cytotoxicity at 10 µM            96.3
13  CN1CCOC(CNC(=O)Cc2ccccc2F)C1 (stereo not drawn)  cytotoxicity at 10 µM           -3.87

---

test: Toxicity liver stage against HepG2, at 10uM; format: cell-based; parameters: test concentration 10 uM, cell line HepG2-A16-CD81EGFP; conditions: human, HepG2-A16-CD81EGFP cells; read-out: INHIBITION
measurement-label: cytotoxicity at 10 µM

> print(dat)
                                    molecule      measurement.label  value.reported
 1  c1cnn(CCN2CCOC(Cn3cncn3)C2)c1 (stereo not given)  cytotoxicity at 10 µM         -0.498%
 2  Cc1n[nH]c(-c2ccc(NC(=O)C(C)(C)N3CCN(C)CC3)cc2)n1  cytotoxicity at 10 µM         -0.876%
 3  CC(=O)N1CCN(CCNS(=O)(=O)c2ccc(F)c(F)c2)CC1  cytotoxicity at 10 µM           8.81%
 4  CCNC(=O)[C@@H]1C[C@H](N)CN1Cc1ccc(-c2ccccc2C#N)o1  cytotoxicity at 10 µM          -38.2%
 5  COc1ccccc1-c1nnc2n1N=C(N)C(C#N)S2 (stereo not given)  cytotoxicity at 10 µM            1.5%
 6         CCc1ncncc1C(=O)N1CCN(Cc2ccco2)CC1  cytotoxicity at 10 µM          -4.91%
 7  COc1ccccc1CN1CC(OC)CN(C(=O)OCC(C)C)CC1=O (stereo not given)  cytotoxicity at 10 µM            -12%
 8  CO[C@H]1C[C@@H](O)C12CCN(C(=O)CCCOc1ccccc1)CC2  cytotoxicity at 10 µM          -2.22%
 9  CC(=O)Nn1ccc2c(nnc3c(-c4ccc(F)cc4)cnn32)c1=O  cytotoxicity at 10 µM           1.36%
10  Cc1cc(CN(C)C(=O)NC2CCN(S(C)(=O)=O)CC2)no1  cytotoxicity at 10 µM           3.25%
11  Cc1cc(Cl)ccc1S(=O)(=O)NCC(C)N1CCN(C)CC1 (stereo not given)  cytotoxicity at 10 µM           8.35%
12  Cn1ncc2c(=O)[nH]c(CN3CCCC3CC(C)(C)C)nc21 (stereo not given)  cytotoxicity at 10 µM          -1.09%
13  COc1ccc(OCC(=O)NC(C)c2ccc(F)cc2)c(C(=O)O)c1 (stereo not given)  cytotoxicity at 10 µM           2.89%
14                Cc1ncsc1C(=O)N(C)Cc1ccncc1  cytotoxicity at 10 µM         -0.524%
15             Cc1ccc(CNc2cnn(CC(F)F)c2)cc1C  cytotoxicity at 10 µM          -0.71%
16  Cc1nc(CN2C(=O)C[C@H]3[C@H]2CCN3C2CCOCC2)cs1  cytotoxicity at 10 µM          -7.87%
17      Cc1ccc(N2CCCN(C(=O)CCc3ccsc3)CC2)nn1  cytotoxicity at 10 µM          -2.22%
18     CCCn1ncc(C(=O)NCCc2[nH]nc3c2CCCC3)c1C  cytotoxicity at 10 µM          -6.63%
19  COCCO[C@H]1CCN(C(=O)c2cnoc2C)[C@H]1Cc1cnn(C)c1  cytotoxicity at 10 µM          -69.6%
20  CCN(CC)CC[C@H]1CN(C(=O)c2ccc(F)cc2)CC[C@H]1CC(=O)O  cytotoxicity at 10 µM            3.1%
21  CC(C)NC(=O)C1CCN(C(C)C(=O)N2CCc3sccc3C2)CC1 (stereo not given)  cytotoxicity at 10 µM           5.52%
22  CCc1ccc2c(c1)C(CCNC(=O)CSC(F)(F)F)C(=O)N2 (stereo not given)  cytotoxicity at 10 µM          -45.5%
23  CC1=N[C@@]2(CC[C@@H]3CN(S(C)(=O)=O)C[C@@H]32)C(=O)N1CC(C)C  cytotoxicity at 10 µM          -71.3%
24  O=C(CCN1CCNCC1)N1CCC2(CC1)c1ccccc1CC2O (stereo not given)  cytotoxicity at 10 µM          -9.43%
25  O=C1N(Cc2cccc(F)c2F)CCCC1(O)CN1CCCOCC1 (stereo not given)  cytotoxicity at 10 µM           18.3%
26  CCC(OC)C(=O)NCc1cc2n(n1)CCCN(C1CCCCC1)C2 (stereo not given)  cytotoxicity at 10 µM            5.3%
27  COc1ccc(Cl)cc1NCc1nc2[nH]c(C)c(C)c(=O)n2n1  cytotoxicity at 10 µM          0.308%
28  CCS(=O)(=O)NC1CCCN(c2ccc(F)cc2C)C1=O (stereo not given)  cytotoxicity at 10 µM           3.93%
29    CCO[C@H]1CO[C@@]2(CCCN(Cc3scnc3C)C2)C1  cytotoxicity at 10 µM           -137%
30    O=C(c1ncoc1C1CC1)N1CCN(CCOc2ccccc2)CC1  cytotoxicity at 10 µM          -6.93%
